These entries and their values trace back to paper PMC6695845.

biological target: human α4β2 nAChR (Homo sapiens, UniProt P17787+P43681); experiment: two-electrode voltage clamp on human α4β2 nAChR expressed in Xenopus laevis oocytes; format: cell-based; set-up: expressed in transfected cells; host or cells: Xenopus laevis oocytes (nuclear cDNA injection)
pEC50: −log10 of the molar value.

{"columns": ["structure smiles", "pEC50"],
 "data": [
  ["CN1CCC[C@H]1COc1cccc(Br)c1", 4.25]
]}

* * *

molecules and their reported IC50
target: human α4β2 nAChR (Homo sapiens, UniProt P17787+P43681); assay: [3H]cytisine competition binding on membrane homogenates of SH-EP-hα4β2 clonal cells; set-up: expressed in transfected cells; conditions: displacement of 1 nM [3H]cytisine, mean ± SEM of four experiments, read-out: α4β2 IC50
metric: IC50

{"columns": ["structure smiles", "metric", "result"],
 "data": [
  ["CN1CCC[C@H]1COc1ccccc1", "IC50", "204 nM"],
  ["CN1CCC[C@H]1COc1cccc(Cl)c1", "IC50", "221 nM"]
]}
